Data provenance: patent US20260199497A1

Measured EC50, listed per entry for reference.
Molecular target: glucocorticoid receptor (Homo sapiens, UniProt P04150)
Sequence (P04150 524-777 limits assumed): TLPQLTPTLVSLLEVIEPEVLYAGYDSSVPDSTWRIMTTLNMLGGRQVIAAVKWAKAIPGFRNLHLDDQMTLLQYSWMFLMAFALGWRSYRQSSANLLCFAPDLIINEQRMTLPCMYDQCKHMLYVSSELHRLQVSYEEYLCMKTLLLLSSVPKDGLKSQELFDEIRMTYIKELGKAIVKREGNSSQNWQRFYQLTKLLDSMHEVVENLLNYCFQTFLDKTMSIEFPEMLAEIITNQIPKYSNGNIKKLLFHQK
Test: GRE reporter gene test (Experiment Example 2), HEK293T cells transfected with pGL4.35 and p-Bind GR Vector
Type: cell-based
Conditions: GRE reporter gene, HEK293T cells, 18-20 h incubation

# molecule, EC50, nM
records = [
    ("C[C@@H]1C[C@H]2[C@@H]3C[C@H](F)C4=CC(=O)C=C[C@]4(C)[C@@]3(F)[C@@H](O)C[C@]2(C)[C@@]1(OC(=O)c1ccc(CO)o1)C(=O)SCF [F-13]", 1.3),
    ("C[C@H](O)CC(=O)O[C@]1(C(=O)SCF)[C@H](C)C[C@H]2[C@@H]3C[C@H](F)C4=CC(=O)C=C[C@]4(C)[C@@]3(F)[C@@H](O)C[C@@]21C [D-15]", 1.4),
    ("C[C@@H]1C[C@H]2[C@@H]3C[C@H](F)C4=CC(=O)C=C[C@]4(C)[C@@]3(F)[C@@H](O)C[C@]2(C)[C@@]1(OC(=O)c1cc(CO)co1)C(=O)SCF [F-9]", 0.4),
    ("C[C@@H]1C[C@H]2[C@@H]3C[C@H](F)C4=CC(=O)C=C[C@]4(C)[C@@]3(F)[C@@H](O)C[C@]2(C)[C@@]1(OC(=O)c1cccc(CO)c1)C(=O)SCF [B-35]", 2.4),
    ("C[C@@H]1C[C@H]2[C@@H]3C[C@H](F)C4=CC(=O)C=C[C@]4(C)[C@@]3(F)[C@@H](O)C[C@]2(C)[C@@]1(OC(=O)c1ccco1)C(=O)SCCO [F-21]", 1.3),
    ("C[C@@H]1C[C@H]2[C@@H]3C[C@H](F)C4=CC(=O)C=C[C@]4(C)[C@@]3(F)[C@@H](O)C[C@]2(C)[C@@]1(OC(=O)C[C@@H](C)O)C(=O)SCF [D-19]", 1.2),
    ("C[C@@H]1C[C@H]2[C@@H]3C[C@H](F)C4=CC(=O)C=C[C@]4(C)[C@@]3(F)[C@@H](O)C[C@]2(C)[C@@]1(OC(=O)c1ccc(CO)cc1)C(=O)SCF [B-31]", 0.32),
    ("C[C@]12C=CC(=O)C=C1[C@@H](F)C[C@H]1[C@@H]3CC[C@](OC(=O)c4cc(CO)co4)(C(=O)SCF)[C@@]3(C)C[C@H](O)[C@@]12F [F-10]", 0.6),
    ("CC(O)CC(=O)O[C@]1(C(=O)SCF)[C@H](C)C[C@H]2[C@@H]3C[C@H](F)C4=CC(=O)C=C[C@]4(C)[C@@]3(F)[C@@H](O)C[C@@]21C (stereo partly drawn) [D-11]", 0.8),
    ("C[C@@H]1C[C@H]2[C@@H]3C[C@H](F)C4=CC(=O)C=C[C@]4(C)[C@@]3(F)[C@@H](O)C[C@]2(C)[C@@]1(OC(=O)CCO)C(=O)SCF [D-5]", 1.3),
    ("C[C@]12C=CC(=O)C=C1[C@@H](F)C[C@H]1[C@@H]3CC[C@](OC(=O)/C=C/c4ccc(F)c(N)c4)(C(=O)SCF)[C@@]3(C)C[C@H](O)[C@@]12F [E-4]", 1),
    ("C[C@]12C=CC(=O)C=C1CC[C@H]1[C@@H]3CC[C@](OC(=O)c4ccc(F)c(N)c4)(C(=O)SCF)[C@@]3(C)C[C@H](O)[C@@]12F [A-2]", 1.7),
    ("CC(O)C(=O)O[C@]1(C(=O)SCF)[C@H](C)C[C@H]2[C@@H]3C[C@H](F)C4=CC(=O)C=C[C@]4(C)[C@@]3(F)[C@@H](O)C[C@@]21C (stereo partly drawn) [D-9]", 3.6),
]
